targetSystem: IRAK4 (Homo sapiens (Human), UniProt Q9NWZ3)
Sequence (Q9NWZ3 whole entry): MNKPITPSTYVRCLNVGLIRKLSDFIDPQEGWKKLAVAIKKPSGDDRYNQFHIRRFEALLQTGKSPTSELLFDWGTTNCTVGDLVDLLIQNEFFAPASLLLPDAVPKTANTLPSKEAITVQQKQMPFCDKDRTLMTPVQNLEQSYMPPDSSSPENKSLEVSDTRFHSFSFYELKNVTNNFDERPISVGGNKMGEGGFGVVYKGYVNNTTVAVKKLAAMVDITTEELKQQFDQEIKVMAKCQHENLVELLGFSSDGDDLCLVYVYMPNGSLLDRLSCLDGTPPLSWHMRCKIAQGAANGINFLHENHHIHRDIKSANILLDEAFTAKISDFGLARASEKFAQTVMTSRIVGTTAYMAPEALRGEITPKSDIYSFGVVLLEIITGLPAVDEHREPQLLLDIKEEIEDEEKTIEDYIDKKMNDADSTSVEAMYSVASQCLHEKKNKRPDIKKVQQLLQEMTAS
measurementNotes: IRAK4 phosphorylation cell assay (IL-1β-stimulated Karpas-299 cells)
Format: cell-based
conditions: IRAK4 auto-phosphorylation (pIRAK4 Thr345/Ser346) in IL-1β-stimulated Karpas-299 cells; geometric mean of at least 2 experiments
Field: pIC50. Provide a value for each of the molecules that follow.
Scale for pIC50: -log10 of concentration given in mol/L; no unit attached.

*Q* State measured pIC50 of the molecule COc1cc2nn([C@H]3CC[C@H](N(C)C(C)=O)CC3)cc2cc1C(=O)Nc1cccn(C)c1=O with IRAK4 (Homo sapiens (Human), UniProt Q9NWZ3).
*A* 7.52

*Q* State measured pIC50 of the molecule COc1cc2nn([C@H]3CC[C@H](N(C)C(=O)[C@@H](C)O)CC3)cc2cc1C(=O)Nc1cccn(-c2cn[nH]c2)c1=O with IRAK4 (Homo sapiens (Human), UniProt Q9NWZ3).
*A* 7.82

*Q* State measured pIC50 of the molecule COc1cc2nn([C@@H]3CC[C@@H](N(C)C(C)=O)C[C@@H]3C)cc2cc1C(=O)Nc1cccn(C)c1=O with IRAK4 (Homo sapiens (Human), UniProt Q9NWZ3).
*A* 7.17

*Q* State measured pIC50 of the molecule COc1cc2nn([C@H]3CC[C@H](N(C)C(=O)[C@@H](C)O)CC3)cc2cc1C(=O)Nc1cccn(-c2cn(C)nn2)c1=O with IRAK4 (Homo sapiens (Human), UniProt Q9NWZ3).
*A* 7.48

*Q* State measured pIC50 of the molecule COc1cc2nn([C@H]3CC[C@H](N(C)C(=O)[C@@H](C)O)CC3)cc2cc1C(=O)Nc1cccn(C2CC2)c1=O with IRAK4 (Homo sapiens (Human), UniProt Q9NWZ3).
*A* 7.62

*Q* State measured pIC50 of the molecule COc1cc2nn([C@H]3CC[C@H](n4cc(C(C)(C)O)nn4)CC3)cc2cc1C(=O)Nc1cccn(C)c1=O with IRAK4 (Homo sapiens (Human), UniProt Q9NWZ3).
*A* 7.66

*Q* State measured pIC50 of the molecule COc1cc2nn([C@H]3CC[C@H](N4CCN(C)C4=O)CC3)cc2cc1C(=O)Nc1cccn(C)c1=O with IRAK4 (Homo sapiens (Human), UniProt Q9NWZ3).
*A* 7.47
